Assay: in vivo
Settings: rat
reported_metric: clearance (mL/min/kg)

1 = CC1(c2c(C(=O)NC3C4CC5CC(C4)CC3C5)cnn2-c2ccc(C(=O)O)cc2)CC1 (centres undefined)
2 = CCCSc1c(C(=O)NC2CCCCC2)cnn1[C@H]1CC[C@@H](C(=O)O)CC1
query: Of 1 and 2 , which shows the smaller clearance value? Selection: enter the item's label.
result: 1

P = CCCSc1c(C(=O)N[C@H]2C3CC4CC2C[C@](OC)(C4)C3)cnn1-c1ccc(C(=O)O)cc1
Q = CCCSc1c(C(=O)NC2CCCCC2)cnn1-c1ccc(C(=O)O)cc1
query: From the recorded data, which exceeds the other in clearance: P or Q ? Selection: enter the item's label.
result: P
(P: 13 mL/min/kg, Q: 4.5 mL/min/kg)

1 = CCCSc1c(C(=O)NC2CCCCC2)cnn1-c1cccc(C(=O)O)c1
2 = Cc1c(C(=O)NC2C3CC4CC(C3)CC2C4)cnn1-c1ccc(C(=O)O)cc1 (centres undefined)
3 = O=C(O)c1ccc(-n2ncc(C(=O)NC3C4CC5CC(C4)CC3C5)c2SC2CCCC2)cc1 (centres undefined)
query: List the 3 entries from lowest clearance to highest clearance value. Answer format: the labels, ordered as requested.
result: 3, 2, 1

A = O=C(O)c1ccc(-n2ncc(C(=O)NC3C4CC5CC(C4)CC3C5)c2C2CC2)cc1 (centres undefined)
B = CCCSc1c(C(=O)N[C@H]2C3CC4CC2C[C@](O)(C4)C3)cnn1-c1ccc(C(=O)O)cc1
query: From the recorded data, which exceeds the other in clearance: A or B ? Selection: enter the item's label.
result: B
(B: 20 mL/min/kg, A: 14 mL/min/kg)
